Below: a set of entries, each annotated with reported IC90 values SPN 1 6305.
Test system: Streptococcus pneumoniae (ATCC6305)
Experimental Details: In-vitro anti-bacterial microtitre plate assay, IC90, S. pneumoniae
Type: cell-based
Assay Conditions: 90% inhibitory concentration for bacterial growth, 24 hours, resazurin fluorescence
Write the value in µg/mL as a bare number.

Reference set, count: 4
C=Cc1ccc2nc(OC)c(C(c3ccccc3)C(O)(CCCCN3CCCCC3)c3ccccc3)cc2c1 (single isomer, unassigned) [Compound 34]    2.1
COc1nc2ccc(CN)cc2cc1C(c1ccccc1)C(O)(CCN(C)C)c1cccc2ccccc12 (centres unmarked) [Compound 18]    3.6
CO/N=C/c1ccc2nc(OC)c(C(c3ccccc3)C(O)(CCN(C)C)c3cccc4ccccc34)cc2c1 (single isomer, unassigned) [Compound 25]    2.1
C=Cc1ccc2nc(OC)c(C(c3ccccc3)C(O)(CCN(C)C)c3cccc4ccccc34)cc2c1 (single isomer, unassigned) [Compound 10]    20.0

Consider the additional compound presented here.
Data request: Field request: IC90 values SPN 1 6305 | item: COc1nc2ccc(/C=N/O)cc2cc1C(c1ccccc1)C(O)(CCCCN(C)C)c1ccc2ccccc2c1 (single isomer, unassigned) [Compound 33]
Data returned: 1.9

====

Below: a set of entries, each annotated with reported melting point.
Write the value in °C as a bare number.

Reference set, count: 3
CC#Cc1ccc2nc(OC)c(C(c3ccccc3)C(O)(CCN(C)C)c3cccc4ccccc34)cc2c1 (single isomer, unassigned) [Compound 14]    202
COc1nc2ccc(/C=N/O)cc2cc1C(c1ccccc1)C(O)(CCN(C)C)c1cccc2ccccc12 (single isomer, unassigned) [Compound 23]    187
C=Cc1ccc2nc(OC)c(C(c3ccc(Cl)cc3)C(O)(CCN(C)C)c3ccccc3)cc2c1 (single isomer, unassigned) [Compound 2]    187

Consider the additional molecule presented here.
Data request: Field request: melting point | item: C=Cc1ccc2nc(OC)c(C(c3ccc(Cl)cc3)C(O)(CCN(C)C)c3ccccc3)cc2c1 (single isomer, unassigned) [Compound 1]
Data returned: 184

====

Tested on: Streptococcus pneumoniae (ATCC6305)
Experimental Details: In-vitro anti-bacterial microtitre plate assay, IC90, S. pneumoniae
Type: cell-based
Assay Conditions: 90% inhibitory concentration for bacterial growth, 24 hours, resazurin fluorescence
# if measured IC90 values SPN 1 6305 < 2 µg/mL: Condition met  # else: Condition not met

Sample answers from the record:
C=Cc1ccc2nc(OC)c(C(c3ccccc3)C(O)(CCCCN3CCCCC3)c3ccccc3)cc2c1 (single isomer, unassigned) [Compound 35]    Condition not met
CC#Cc1ccc2nc(OC)c(C(c3ccccc3)C(O)(CCN(C)C)c3cccc4ccccc34)cc2c1 (single isomer, unassigned) [Compound 13]    Condition met
COc1nc2ccc(CN(C)C)cc2cc1C(c1ccccc1)C(O)(CCN(C)C)c1cccc2ccccc12 (single isomer, unassigned)    Condition not met
C/C=C/c1ccc2nc(OC)c(C(c3ccccc3)C(O)(CCN(C)C)c3cccc4ccccc34)cc2c1 (single isomer, unassigned) [Compound 12]    Condition met
CC#Cc1ccc2nc(OC)c(C(c3ccccc3)C(O)(CCN(C)C)c3cccc4ccccc34)cc2c1 (single isomer, unassigned) [Compound 14]    Condition met
COc1nc2ccc(N3CCOCC3)cc2cc1C(c1ccccc1)C(O)(CCN(C)C)c1ccccc1 (single isomer, unassigned) [Compound 36]    Condition not met
COc1nc2ccc(/C=N/O)cc2cc1C(c1ccccc1)C(O)(CCN(C)C)c1cccc2ccccc12 (single isomer, unassigned) [Compound 23]    Condition met

--- query ---
Data request: Say whether its IC90 values SPN 1 6305 is strictly beneath 2 µg/mL. Entry: COc1nc2ccc(N)cc2cc1C(c1ccccc1)C(O)(CCN(C)C)c1cccc2ccccc12 (single isomer, unassigned) [Compound 16]
Data returned: Condition not met
